molecular target: α4β2 nAChR (Homo sapiens, UniProt P17787+P43681); construct: expressed in transfected cells; host or cells: Xenopus laevis oocytes; test: Inhibition of control ACh responses by co-application, α4β2 nAChR in oocytes; format: cell-based; settings: 3 μM compound co-applied with ACh; fraction of control ACh response
Sequence (P43681 29-627 limits assumed): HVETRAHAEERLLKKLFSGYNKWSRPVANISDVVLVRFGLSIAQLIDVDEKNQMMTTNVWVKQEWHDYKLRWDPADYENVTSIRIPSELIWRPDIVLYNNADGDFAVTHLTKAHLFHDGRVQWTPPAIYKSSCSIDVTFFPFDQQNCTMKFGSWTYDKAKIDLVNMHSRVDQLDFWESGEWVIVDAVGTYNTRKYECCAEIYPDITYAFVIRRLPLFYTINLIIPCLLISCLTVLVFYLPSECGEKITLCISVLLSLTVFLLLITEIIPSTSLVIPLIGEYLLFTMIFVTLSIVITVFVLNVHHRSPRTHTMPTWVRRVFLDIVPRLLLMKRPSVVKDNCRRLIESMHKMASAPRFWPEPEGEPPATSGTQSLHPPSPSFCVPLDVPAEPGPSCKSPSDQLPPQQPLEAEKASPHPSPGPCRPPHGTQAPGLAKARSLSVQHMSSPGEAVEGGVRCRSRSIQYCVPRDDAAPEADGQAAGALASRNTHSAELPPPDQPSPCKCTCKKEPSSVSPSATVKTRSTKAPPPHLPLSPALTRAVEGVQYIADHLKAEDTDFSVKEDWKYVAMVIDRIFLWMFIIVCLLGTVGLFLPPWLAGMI
Sequence (P17787 26-502): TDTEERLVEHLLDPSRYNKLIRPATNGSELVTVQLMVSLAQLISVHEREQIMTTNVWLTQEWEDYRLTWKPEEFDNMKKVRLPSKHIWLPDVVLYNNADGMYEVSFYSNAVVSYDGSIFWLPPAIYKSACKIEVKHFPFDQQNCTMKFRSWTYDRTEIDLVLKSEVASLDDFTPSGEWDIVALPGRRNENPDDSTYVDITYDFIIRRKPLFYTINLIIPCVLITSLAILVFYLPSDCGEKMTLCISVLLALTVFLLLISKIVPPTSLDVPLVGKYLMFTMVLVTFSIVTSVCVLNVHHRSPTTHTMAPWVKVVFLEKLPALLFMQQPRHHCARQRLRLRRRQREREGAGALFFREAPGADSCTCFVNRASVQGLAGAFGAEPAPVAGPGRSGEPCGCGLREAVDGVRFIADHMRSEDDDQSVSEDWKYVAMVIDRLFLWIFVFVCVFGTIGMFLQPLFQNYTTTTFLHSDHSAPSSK
Binarize Effect of co-application on the control ACh responses, α4β2 at 0.9; below is true, at or above is false.

Example cases with answers are listed next.
structure-as-smiles	assigned-label
CC[N+]1(CC)CCN(c2ccc(C(=O)Nc3ccccn3)cc2)CC1.[I-]	true
CC[N+]1(CC)CCN(c2ccc(-c3ncco3)cc2)CC1.[I-]	true

query: Is 0.9 strictly greater than the compound's reported Effect of co-application on the control ACh responses, α4β2? compound: "CC[N+]1(CC)CCN(c2ccc(C(=O)Nc3cccc(C)c3)cc2)CC1.[I-]"
result: true

query: What about this compound? "CCCNC(=O)c1ccc(N2CC[N+](CC)(CC)CC2)cc1.[I-]"
result: false

query: What about this compound? "CC[N+]1(CC)CCN(c2ccc(-n3cccc3)cc2)CC1.[I-]"
result: true

query: What about this compound? "CC[N+]1(C)CCN(c2ccc(C(=O)Nc3cccc(C)n3)cc2)CC1.[I-]"
result: true
